Procedure Text: AUC (0 to infinity) in mouse at 50 mg/kg, po
Assay type: ADME, organism-based
Condition Set: in vivo
Attribute Measured: AUC(0-inf) (ng·h/mL)

Compound Structure: CC1(C)CC(=O)c2c(C(F)(F)F)nn(Cc3ccc(C(=O)NO)cc3)c2C1
Readout Unit: ng·h/mL
Readout Number: 1150

* * *

System Name: Protein deacetylase HDAC6 (Homo sapiens, UniProt Q9UBN7)
Sequence (Q9UBN7 whole entry): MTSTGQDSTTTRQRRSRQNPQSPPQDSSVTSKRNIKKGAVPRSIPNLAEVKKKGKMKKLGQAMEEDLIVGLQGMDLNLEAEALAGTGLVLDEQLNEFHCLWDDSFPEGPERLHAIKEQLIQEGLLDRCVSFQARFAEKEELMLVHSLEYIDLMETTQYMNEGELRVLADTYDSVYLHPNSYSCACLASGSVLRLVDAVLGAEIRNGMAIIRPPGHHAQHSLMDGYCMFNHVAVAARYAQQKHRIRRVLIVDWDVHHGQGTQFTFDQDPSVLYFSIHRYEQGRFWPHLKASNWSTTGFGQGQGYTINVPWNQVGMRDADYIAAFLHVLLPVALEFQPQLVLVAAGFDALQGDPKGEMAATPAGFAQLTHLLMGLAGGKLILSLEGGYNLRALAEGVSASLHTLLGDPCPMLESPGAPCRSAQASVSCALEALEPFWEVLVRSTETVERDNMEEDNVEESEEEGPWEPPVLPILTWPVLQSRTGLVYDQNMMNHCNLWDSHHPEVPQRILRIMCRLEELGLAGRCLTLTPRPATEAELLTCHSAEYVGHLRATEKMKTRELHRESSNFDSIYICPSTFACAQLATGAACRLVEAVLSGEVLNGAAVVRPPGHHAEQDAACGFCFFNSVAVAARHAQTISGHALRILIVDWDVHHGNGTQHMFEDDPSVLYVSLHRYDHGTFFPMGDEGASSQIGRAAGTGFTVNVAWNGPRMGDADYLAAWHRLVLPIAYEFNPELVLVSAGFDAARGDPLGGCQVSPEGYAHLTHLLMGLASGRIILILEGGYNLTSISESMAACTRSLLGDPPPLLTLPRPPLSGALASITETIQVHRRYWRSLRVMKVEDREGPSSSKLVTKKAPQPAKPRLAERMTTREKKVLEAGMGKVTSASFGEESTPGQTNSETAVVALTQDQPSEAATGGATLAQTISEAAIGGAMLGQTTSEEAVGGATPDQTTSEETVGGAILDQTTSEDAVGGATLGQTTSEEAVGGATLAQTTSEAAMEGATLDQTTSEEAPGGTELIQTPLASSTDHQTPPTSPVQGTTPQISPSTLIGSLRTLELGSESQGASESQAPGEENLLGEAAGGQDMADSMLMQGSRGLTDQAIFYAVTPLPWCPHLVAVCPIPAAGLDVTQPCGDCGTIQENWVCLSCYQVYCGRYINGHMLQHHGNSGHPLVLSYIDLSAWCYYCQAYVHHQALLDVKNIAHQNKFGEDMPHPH
Procedure Text: Inhibition of N-terminal GST-tagged human recombinant HDAC6 expressed in Spodoptera frugiperda incubated for 60 mins by fluorescence based analysis
Attribute Measured: IC50 (nM)

Compound: CCN1CCN(CC2CCc3c(c4ccccc4n3Cc3ccc(C(=O)NO)cc3)C2=O)CC1 (stereo not given)
Readout Number: 14

Compound: O=C(NO)c1ccc(Cn2c3c(c4ccccc42)C(=O)C(CN2CCN(c4ccc(F)cc4)CC2)CC3)cc1 (stereo not given)
Readout Number: 8

Compound: CCCCN1CCN(CC2CCc3c(c4cc(F)ccc4n3Cc3ccc(C(=O)NO)cc3)C2=O)CC1 (stereo not given)
Readout Number: 6

Compound: Cc1c2c(n(Cc3ccc(C(=O)NO)cc3)c1C)CC(C)(C)CC2=O
Readout Number: 11

Compound: CN1CCN(CC2C(=O)c3c(n(Cc4ccc(C(=O)NO)cc4)c4ccc(F)cc34)CC2(C)C)CC1 (stereo not given)
Readout Number: 2

Compound: O=C(NO)c1ccc(Cn2c3c(c4ccccc42)C(=O)C(CN2CCCCC2)CC3)cc1 (stereo not given)
Readout Number: 12

Compound: Cc1nn(Cc2ccc(C(=O)NO)cc2)c2c1C(=O)CC(C)(C)C2
Readout Number: 12

Compound: CN1CCN(CC2CCc3c(c4cc(F)ccc4n3Cc3ccc(C(=O)NO)cc3)C2=O)CC1 (stereo not given)
Readout Number: 5

Compound: CC1(C)CC(=O)c2c(n(Cc3ccc(C(=O)NO)cc3)c3ccccc23)C1
Readout Number: 12

Compound: Cc1cn(Cc2ccc(C(=O)NO)cc2)c2c1C(=O)CC(C)(C)C2
Readout Number: 8

Compound: Cc1cn(Cc2ccc(C(=O)NO)cc2)c2c1C(=O)CCC2
Readout Number: 2

Compound: O=C(NO)c1ccc(Cn2c3c(c4cc(F)ccc42)C(=O)C(CN2CCOCC2)CC3)cc1 (stereo not given)
Readout Number: 5

Compound: Cc1c2c(n(Cc3ccc(C(=O)NO)cc3)c1C)CCCC2=O
Readout Number: 4

Compound: CCN1CCN(CC2CCc3c(c4cc(F)ccc4n3Cc3ccc(C(=O)NO)cc3)C2=O)CC1 (stereo not given)
Readout Number: 11

Compound: Cc1nccn1CC1CCc2c(c3cc(F)ccc3n2Cc2ccc(C(=O)NO)cc2)C1=O (stereo not given)
Readout Number: 9

Compound: Cc1ccc(N2CCN(CC3CCc4c(c5ccccc5n4Cc4ccc(C(=O)NO)cc4)C3=O)CC2)cc1C (stereo not given)
Readout Number: 40

Compound: CN1CCN(CC2CCc3c(c4ccccc4n3Cc3ccc(C(=O)NO)cc3)C2=O)CC1 (stereo not given)
Readout Number: 12

Compound: O=C(NO)c1ccc(Cn2c3c(c4ccccc42)C(=O)CCC3)cc1
Readout Number: 16

Compound: CC1CN(CC2CCc3c(c4ccccc4n3Cc3ccc(C(=O)NO)cc3)C2=O)CC(C)O1 (stereo not given)
Readout Number: 11

Compound: Cc1nccn1CC1C(=O)c2c(n(Cc3ccc(C(=O)NO)cc3)c3ccccc23)CC1(C)C (stereo not given)
Readout Number: 35

* * *

System Name: Polyamine deacetylase HDAC10 (Homo sapiens)
Sequence (Q969S8 whole entry): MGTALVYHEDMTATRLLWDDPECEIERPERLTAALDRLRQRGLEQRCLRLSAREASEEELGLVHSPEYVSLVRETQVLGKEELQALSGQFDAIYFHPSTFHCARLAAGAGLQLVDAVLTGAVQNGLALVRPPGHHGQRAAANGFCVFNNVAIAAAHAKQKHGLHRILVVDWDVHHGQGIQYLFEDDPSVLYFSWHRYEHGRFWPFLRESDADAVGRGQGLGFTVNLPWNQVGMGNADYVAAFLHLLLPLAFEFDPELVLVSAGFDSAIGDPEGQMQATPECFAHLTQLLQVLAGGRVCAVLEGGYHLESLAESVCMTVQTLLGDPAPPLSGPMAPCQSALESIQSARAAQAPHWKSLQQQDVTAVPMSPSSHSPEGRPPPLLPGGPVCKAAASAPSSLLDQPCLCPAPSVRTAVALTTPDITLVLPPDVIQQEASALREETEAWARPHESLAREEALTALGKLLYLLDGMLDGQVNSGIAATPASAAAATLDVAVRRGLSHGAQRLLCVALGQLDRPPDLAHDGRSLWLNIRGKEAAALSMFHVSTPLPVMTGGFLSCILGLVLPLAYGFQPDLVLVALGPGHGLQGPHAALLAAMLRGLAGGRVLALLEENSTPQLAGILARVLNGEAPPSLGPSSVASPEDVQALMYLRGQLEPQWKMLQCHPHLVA
Procedure Text: Inhibition of human recombinant HDAC10 using fluorescent peptide p53 (379 to 382 residues) RHKK(Ac) as substrate by fluorescence based analysis

Compound: CC1(C)CC(=O)c2c(C(F)(F)F)nn(Cc3ccc(C(=O)NO)cc3)c2C1
System Name: Polyamine deacetylase HDAC10 (Homo sapiens)
IC50: > 20 µM
//
Compound: CN1CCN(CC2CCc3c(c4cc(F)ccc4n3Cc3ccc(C(=O)NO)cc3)C2=O)CC1 (stereo not drawn)
System Name: Polyamine deacetylase HDAC10 (Homo sapiens)
IC50: > 20 µM
//
Compound: O=C(NO)c1ccc(Cn2c3c(c4ccccc42)C(=O)CCC3)cc1
System Name: Polyamine deacetylase HDAC10 (Homo sapiens)
IC50: > 20 µM

* * *

System Name: Histone deacetylase 4 (Homo sapiens, UniProt P56524)
Sequence (P56524 whole entry): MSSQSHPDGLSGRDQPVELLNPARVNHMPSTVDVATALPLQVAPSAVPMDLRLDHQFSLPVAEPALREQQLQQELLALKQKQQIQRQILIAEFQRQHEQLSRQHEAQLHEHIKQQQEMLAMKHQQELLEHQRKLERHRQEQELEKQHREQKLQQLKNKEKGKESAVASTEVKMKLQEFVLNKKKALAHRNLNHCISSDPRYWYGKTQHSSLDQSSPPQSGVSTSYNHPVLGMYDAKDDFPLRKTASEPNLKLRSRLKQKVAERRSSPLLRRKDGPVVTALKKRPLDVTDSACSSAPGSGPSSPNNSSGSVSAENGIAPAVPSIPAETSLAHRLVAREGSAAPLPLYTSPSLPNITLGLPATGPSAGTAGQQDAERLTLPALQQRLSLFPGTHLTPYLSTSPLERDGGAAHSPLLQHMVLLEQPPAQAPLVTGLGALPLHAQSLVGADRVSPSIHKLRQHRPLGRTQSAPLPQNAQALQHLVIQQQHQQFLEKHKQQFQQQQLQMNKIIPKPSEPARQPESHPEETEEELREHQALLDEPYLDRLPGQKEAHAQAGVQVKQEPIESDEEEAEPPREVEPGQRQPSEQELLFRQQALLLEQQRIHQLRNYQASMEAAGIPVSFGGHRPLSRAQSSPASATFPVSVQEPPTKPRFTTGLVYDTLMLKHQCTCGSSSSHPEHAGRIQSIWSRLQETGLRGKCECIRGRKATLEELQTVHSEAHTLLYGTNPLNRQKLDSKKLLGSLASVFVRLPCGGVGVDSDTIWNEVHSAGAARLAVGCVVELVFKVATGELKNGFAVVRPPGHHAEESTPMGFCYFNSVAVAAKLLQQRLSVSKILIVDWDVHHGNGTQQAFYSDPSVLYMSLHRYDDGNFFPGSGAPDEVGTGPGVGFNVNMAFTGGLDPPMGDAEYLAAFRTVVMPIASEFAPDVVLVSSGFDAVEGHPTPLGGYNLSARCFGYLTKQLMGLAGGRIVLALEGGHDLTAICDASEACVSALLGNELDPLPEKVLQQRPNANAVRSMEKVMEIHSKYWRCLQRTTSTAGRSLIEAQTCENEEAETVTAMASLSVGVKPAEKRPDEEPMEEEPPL
Procedure Text: Inhibition of human recombinant HDAC4 using Boc-Lys(tri-fluoroacetyl)-AMC as substrate by fluorescence based analysis
pIC50: −log10 of the molar value.

Compound Structure: O=C(NO)c1ccc(Cn2c3c(c4ccccc42)C(=O)CCC3)cc1
pIC50: < 4.70

* * *

Procedure Text: AUC (0 to infinity) in mouse at 10 mg/kg, iv
Type: ADME, organism-based
Condition Set: in vivo
Attribute Measured: AUC(0-inf)

Compound Structure: CC1(C)CC(=O)c2c(C(F)(F)F)nn(Cc3ccc(C(=O)NO)cc3)c2C1
Result: 1210 ng·h/mL

* * *

Procedure Text: AUC (0 to infinity) in monkey at 10 mg/kg, po
Format: ADME, organism-based, Macaca mulatta
Condition Set: rhesus monkey, in vivo

Compound Structure: CC1(C)CC(=O)c2c(C(F)(F)F)nn(Cc3ccc(C(=O)NO)cc3)c2C1
Readout Unit: ng·h/mL
AUC(0-inf): 339

* * *

Procedure Text: AUClast in mouse at 10 mg/kg, iv
Format: ADME, organism-based
Condition Set: in vivo

Compound Structure: CC1(C)CC(=O)c2c(C(F)(F)F)nn(Cc3ccc(C(=O)NO)cc3)c2C1
AUC(0-t) (ng·h/mL): 1200

* * *

Organism: Homo sapiens
Procedure Text: Selectivity index, ratio of IC50 for inhibition of his-tagged human recombinant HDAC1 using fluor de lys-SIRT1 as substrate to IC50 for inhibition of N-terminal GST-tagged human recombinant HDAC6 expressed in Spodoptera frugiperda
Recorded Ratio IC50 by entry

Compound: CN1CCN(CC2CCc3c(c4cc(F)ccc4n3Cc3ccc(C(=O)NO)cc3)C2=O)CC1 (stereo not drawn)
Ratio IC50: 530
//
Compound: CC1(C)Cc2c(c3ccccc3n2Cc2ccc(C(=O)NO)cc2)C(=O)C1CN1CCOCC1 (stereo not drawn)
Ratio IC50: 153
//
Compound: O=C(NO)c1ccc(Cn2c3c(c4cc(F)ccc42)C(=O)C(CN2CCOCC2)CC3)cc1 (stereo not drawn)
Ratio IC50: 828
//
Compound: CC1(C)CC(=O)c2c(n(Cc3ccc(C(=O)NO)cc3)c3ccc(Br)cc23)C1
Ratio IC50: 42.4
//
Compound: CC(C)(C)OC(=O)N1CCN(CC2CCc3c(c4cc(F)ccc4n3Cc3ccc(C(=O)NO)cc3)C2=O)CC1 (stereo not drawn)
Ratio IC50: 311
//
Compound: CC1(C)Cc2c(c3cc(F)ccc3n2Cc2ccc(C(=O)NO)cc2)C(=O)C1CN1CCOCC1 (stereo not drawn)
Ratio IC50: 41.4
//
Compound: Cc1ccc(N2CCN(CC3CCc4c(c5ccccc5n4Cc4ccc(C(=O)NO)cc4)C3=O)CC2)cc1C (stereo not drawn)
Ratio IC50: 203
//
Compound: Cc1c2c(n(Cc3ccc(C(=O)NO)cc3)c1C)CC(C)(C)CC2=O
Ratio IC50: 464
//
Compound: Cc1c2c(n(Cc3ccc(C(=O)NO)cc3)c1C)CCCC2=O
Ratio IC50: 705
//
Compound: Cc1nccn1CC1C(=O)c2c(n(Cc3ccc(C(=O)NO)cc3)c3ccccc23)CC1(C)C (stereo not drawn)
Ratio IC50: 166
//
Compound: Cc1nccn1CC1CCc2c(c3cc(F)ccc3n2Cc2ccc(C(=O)NO)cc2)C1=O (stereo not drawn)
Ratio IC50: 570
//
Compound: CC1(C)CC(=O)c2c(n(Cc3ccc(C(=O)NO)cc3)c3ccccc23)C1
Ratio IC50: 345
//
Compound: O=C(NO)c1ccc(Cn2c3c(c4cc(F)ccc42)C(=O)CCC3)cc1
Ratio IC50: 328
//
Compound: CN1CCN(CC2CCc3c(c4ccccc4n3Cc3ccc(C(=O)NO)cc3)C2=O)CC1 (stereo not drawn)
Ratio IC50: 345
//
Compound: O=C(NO)c1ccc(Cn2c3c(c4ccccc42)C(=O)CCC3)cc1
Ratio IC50: 168
//
Compound: CC1CN(CC2CCc3c(c4ccccc4n3Cc3ccc(C(=O)NO)cc3)C2=O)CC(C)O1 (stereo not drawn)
Ratio IC50: 79.1
//
Compound: CC(C)N1CCN(CC2CCc3c(c4cc(F)ccc4n3Cc3ccc(C(=O)NO)cc3)C2=O)CC1 (stereo not drawn)
Ratio IC50: 50.2
//
Compound: CCCCN1CCN(CC2CCc3c(c4cc(F)ccc4n3Cc3ccc(C(=O)NO)cc3)C2=O)CC1 (stereo not drawn)
Ratio IC50: 373
//
Compound: CC(C)(C)OC(=O)N1CCN(CC2CCc3c(c4ccccc4n3Cc3ccc(C(=O)NO)cc3)C2=O)CC1 (stereo not drawn)
Ratio IC50: 327
//
Compound: CC1(C)CC(=O)c2c(C(F)(F)F)nn(Cc3ccc(C(=O)NO)cc3)c2C1
Ratio IC50: 217
//
Compound: Cc1cn(Cc2ccc(C(=O)NO)cc2)c2c1C(=O)CC(C)(C)C2
Ratio IC50: 380
//
Compound: O=C(NO)c1ccc(Cn2c3c(c4ccccc42)C(=O)C(CN2CCN(c4ccc(F)cc4)CC2)CC3)cc1 (stereo not drawn)
Ratio IC50: 661
//
Compound: Cc1nn(Cc2ccc(C(=O)NO)cc2)c2c1C(=O)CC(C)(C)C2
Ratio IC50: 135
//
Compound: CCN1CCN(CC2CCc3c(c4cc(F)ccc4n3Cc3ccc(C(=O)NO)cc3)C2=O)CC1 (stereo not drawn)
Ratio IC50: 202
//
Compound: CN1CCN(CC2C(=O)c3c(n(Cc4ccc(C(=O)NO)cc4)c4ccc(F)cc34)CC2(C)C)CC1 (stereo not drawn)
Ratio IC50: 182
//
Compound: CCN1CCN(CC2CCc3c(c4ccccc4n3Cc3ccc(C(=O)NO)cc3)C2=O)CC1 (stereo not drawn)
Ratio IC50: 329
//
Compound: Cc1cn(Cc2ccc(C(=O)NO)cc2)c2c1C(=O)CCC2
Ratio IC50: 543
//
Compound: O=C(NO)c1ccc(Cn2c3c(c4ccccc42)C(=O)C(CN2CCCCC2)CC3)cc1 (stereo not drawn)
Ratio IC50: 284
